# Test system: p38-alpha
# Construct: gene MAPK14
# Condition Details: concentration: 1 μM, replicates: in singlicate; n = 1;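 further: KINOMEscan kinase panel screen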
Each record here notes measured %Inh.
Metric: %Inh (%)

- Compound: "CN1CCN(CCCNc2nccc(-c3c(-c4ccc(F)cc4)nn4cc(C(F)(F)F)ccc34)n2)CC1 [GW621581]"
  Target Or System: "p38-alpha"
  Recorded Measurement: 99.8
- Compound: "CNC(=O)c1ccccc1Nc1nc(Nc2ccc(N3CCOCC3)cc2)ncc1Cl.Cl [GSK1576028]"
  Target Or System: "p38-alpha"
  Recorded Measurement: 8
- Compound: "CC(=O)N1CCN(c2ccc(Nc3nccc(-c4sc(C(C)C)nc4-c4cccc(NS(=O)(=O)c5cccc(Cl)c5)c4)n3)cn2)CC1 [GSK1660437]"
  Target Or System: "p38-alpha"
  Recorded Measurement: 32
- Compound: "COc1cc(Nc2nccc(-c3c(-c4cccc(NC(=O)c5c(F)cccc5F)c4)nn4ncccc34)n2)cc(OC)c1OC [GSK327238]"
  Target Or System: "p38-alpha"
  Recorded Measurement: 99.9
- Compound: "O=c1[nH]cc(-c2ccc(N3CCOCC3)cc2)c2sc(-c3cn[nH]c3)cc12 [GSK2276055]"
  Target Or System: "p38-alpha"
  Recorded Measurement: 8
- Compound: "COc1cc(Nc2nccc(-c3c(-c4cccc(NC(=O)c5c(F)cccc5F)c4)nn4ccccc34)n2)cc(OC)c1OC [GSK323521]"
  Target Or System: "p38-alpha"
  Recorded Measurement: 0
- Compound: "O=C(Nc1cccc(-c2nn3ccccc3c2-c2ccnc(Nc3cccc(F)c3)n2)c1)c1c(F)ccc(F)c1Cl [GSK357952]"
  Target Or System: "p38-alpha"
  Recorded Measurement: 0
- Compound: "O=C(NC1CCN(c2ccnc(Nc3ccc(F)cc3)n2)C1)c1cc2ccccc2s1 (stereo not shown) [GSK1379716]"
  Target Or System: "p38-alpha"
  Recorded Measurement: 7
- Compound: "COc1cccc(C2=C(Nc3ccc(Cl)c(C(=O)O)c3)C(=O)NC2=O)c1 [SB-390769]"
  Target Or System: "p38-alpha"
  Recorded Measurement: 12
- Compound: "c1ccc(-c2n[nH]cc2Nc2ccnc3ccccc23)nc1 [GW694077]"
  Target Or System: "p38-alpha"
  Recorded Measurement: 2
- Compound: "CC(C)c1nc(-c2cccc(NS(=O)(=O)c3c(F)cccc3F)c2F)c(-c2ccnc(Nc3ccc(N4CCOCC4)nc3)n2)s1 [GSK2008607]"
  Target Or System: "p38-alpha"
  Recorded Measurement: 81
- Compound: "Nc1ncc(-c2cccnc2)c2scc(-c3ccc4c(c3)CCN4C(=O)Cc3ccccc3)c12 [GSK683281]"
  Target Or System: "p38-alpha"
  Recorded Measurement: 4
- Compound: "CN1CCN(Cc2cccc(-c3ccc4c(Nc5ccc(Oc6ccccc6)cc5)ccnc4c3)c2)CC1 [GW578342]"
  Target Or System: "p38-alpha"
  Recorded Measurement: 23
- Compound: "Nc1ncc(-c2ccc3nccc(-c4ccncc4)c3c2)cc1S(=O)(=O)N1CCOCC1 [GSK1627798]"
  Target Or System: "p38-alpha"
  Recorded Measurement: 0
- Compound: "Cl.c1ccc(-c2ccc3c(Nc4ccc5[nH]ccc5c4)ccnc3c2)nc1 [GW440138]"
  Target Or System: "p38-alpha"
  Recorded Measurement: 20
- Compound: "COC(=O)Nc1nc2ccc(Oc3ccc(NC(=O)Nc4cc(C(F)(F)F)ccc4F)cc3)cc2n1C.Cl [GW692089]"
  Target Or System: "p38-alpha"
  Recorded Measurement: 57
- Compound: "CSc1cccc2c(-c3ccncn3)c(-c3ccc(F)cc3)nn12 [GW514786]"
  Target Or System: "p38-alpha"
  Recorded Measurement: 98
- Compound: "Nc1n[nH]c2cnc(-c3ccccc3)cc12 [SB-642124]"
  Target Or System: "p38-alpha"
  Recorded Measurement: 0
- Compound: "Cn1cc(-c2[nH]c3cc(NC(=O)[C@H](N)C4CCCCC4)cc4c3c2C=NNC4=O)cn1"
  Target Or System: "p38-alpha"
  Recorded Measurement: 0

###

# Test system: MAP4K5
# Condition Details: concentration: 1 μM, replicates: in singlicate; n = 1
Rule for this label: 1 means %Inh is less than 50%; -1 means %Inh is at least 50%.

- Compound: "C[C@@H](Oc1cc(-n2cnc3cc(-c4ccnc(NCCS(C)(=O)=O)c4)ccc32)sc1C(N)=O)c1ccccc1Cl"
  Target Or System: "MAP4K5"
  Assigned Class: -1
- Compound: "CN1CCN(CCCNc2nccc(-c3c(-c4ccc(F)cc4)nn4cc(C(F)(F)F)ccc34)n2)CC1"
  Target Or System: "MAP4K5"
  Assigned Class: 1
- Compound: "COc1cccc(NC(=O)NC2CCN(c3ccnc(Nc4cc(OC)c(OC)c(OC)c4)n3)C2)c1 (stereo not shown)"
  Target Or System: "MAP4K5"
  Assigned Class: -1
- Compound: "CC(=O)Nc1nc2cnc(Nc3cc(NC(=O)c4cccc(C5(C#N)CC5)c4Cl)ccc3C)nc2s1"
  Target Or System: "MAP4K5"
  Assigned Class: 1
- Compound: "Cc1ccc(S(=O)(=O)Nc2ccc(Nc3nccc(Nc4cccc5[nH]ncc45)n3)cc2)cc1"
  Target Or System: "MAP4K5"
  Assigned Class: 1
- Compound: "CC(=O)N1CCN(c2ccc(Nc3nccc(-c4sc(C(C)C)nc4-c4cccc(NS(=O)(=O)c5cccc(Cl)c5)c4)n3)cn2)CC1"
  Target Or System: "MAP4K5"
  Assigned Class: -1
- Compound: "COc1cccc(C2=C(Nc3ccc(Cl)c(C(=O)O)c3)C(=O)NC2=O)c1"
  Target Or System: "MAP4K5"
  Assigned Class: -1
- Compound: "CN(C)Cc1ccc(-c2ccc3c(Nc4ccc(Oc5ccccn5)cc4)ccnc3c2)o1"
  Target Or System: "MAP4K5"
  Assigned Class: -1
- Compound: "Cc1ccc(F)c(C(=O)Nc2cccc(-c3nn4ccccc4c3-c3ccnc(Nc4cccc(F)c4)n3)c2)c1F"
  Target Or System: "MAP4K5"
  Assigned Class: -1
- Compound: "CCCCc1nn2ncccc2c1-c1ccnc(Nc2ccc(N3CCN(C)CC3)cc2)n1"
  Target Or System: "MAP4K5"
  Assigned Class: 1
- Compound: "O=C(Nc1cccc(Oc2ccc3nc(NC(=O)C4CC4)cn3n2)c1)c1ccccc1C(F)(F)F"
  Target Or System: "MAP4K5"
  Assigned Class: 1
- Compound: "c1ccc(-c2cnc3nccnn23)cc1"
  Target Or System: "MAP4K5"
  Assigned Class: 1
- Compound: "Cc1cccc(Nc2nc(N[C@H]3CCNC3)ncc2C(N)=O)c1.Cl"
  Target Or System: "MAP4K5"
  Assigned Class: 1
- Compound: "O=C(NC1CCN(c2ccnc(Nc3ccc(F)cc3)n2)C1)c1cc2ccccc2s1 (stereo not shown)"
  Target Or System: "MAP4K5"
  Assigned Class: 1
- Compound: "COc1ccc(Nc2nccc(N3CCC(NC(=O)Nc4cccc(OC)c4)C3)n2)cc1 (stereo not shown)"
  Target Or System: "MAP4K5"
  Assigned Class: 1
- Compound: "CCn1c(-c2nonc2N)nc2c(C#CC(C)(C)O)ncc(OCCCCN)c21.O=C(O)C(F)(F)F.O=C(O)C(F)(F)F"
  Target Or System: "MAP4K5"
  Assigned Class: 1

###

# Test system: SIK2
# Condition Details: concentration: 1 μM, replicates: in singlicate; n = 1
// NB: equality with 6% counts as class 0; only %Inh strictly below is class 1

- Molecule: "COc1cccc(NC(=O)NC2CCN(c3ccnc(Nc4cc(OC)c(OC)c(OC)c4)n3)C2)c1 (stereo not drawn) [GSK1379763]"
  Assigned Class: "class 1"
- Molecule: "C[C@@H](Oc1cc(-n2cnc3cc(-c4ccnc(NCCS(C)(=O)=O)c4)ccc32)sc1C(N)=O)c1ccccc1Cl [GSK907232]"
  Assigned Class: "class 0"
- Molecule: "CCn1c(-c2nonc2N)nc2c(C#CC(C)(C)O)ncc(OCCCCN)c21.O=C(O)C(F)(F)F.O=C(O)C(F)(F)F [GSK507274]"
  Assigned Class: "class 1"
- Molecule: "CC(=O)N1CCN(c2ccc(Nc3nccc(-c4sc(C(C)C)nc4-c4cccc(NS(=O)(=O)c5cccc(Cl)c5)c4)n3)cn2)CC1 [GSK1660437]"
  Assigned Class: "class 0"
- Molecule: "COC(=O)Nc1nc2ccc(Oc3ccc(NC(=O)Nc4cc(C(F)(F)F)ccc4F)cc3)cc2n1C.Cl [GW692089]"
  Assigned Class: "class 1"
- Molecule: "Cc1ccc(C)c(NC(=O)NC2CCN(c3ccnc(Nc4ccc(F)cc4)n3)C2)c1 (stereo not drawn) [GSK1379720]"
  Assigned Class: "class 1"
- Molecule: "O=C(O)C(F)(F)F.O=C(O)C(F)(F)F.O=c1[nH]ccc2nc(N[C@@H]3CCCNC3)nc(Nc3ccc(S(=O)(=O)N4CCOCC4)cc3)c12 [GSK2177277]"
  Assigned Class: "class 0"
- Molecule: "CSc1cccc2c(-c3ccncn3)c(-c3ccc(F)cc3)nn12 [GW514786]"
  Assigned Class: "class 1"
